Task for the reader: assign each of the following molecules its reported cell viability.
- Tested on: K562
- protocol.details: cell viability relative to vehicle control; higher = less cytotoxic;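 further: after 48 h exposure read by CellTiter-Glo luminescence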
- condition: 10 µM; SRSF2 genotype: SRSF2 wt/wt
Counter-ions that a name gives are not always drawn.
Provide a numeric answer, followed by its unit.

C=C(c1ccc(C(=O)O)cc1)c1cc2c(cc1C)C(C)(C)CCC2(C)C = 87.6%

Please state cell viability for every molecule in the list that follows.
1. Cc1ccc(NC(=S)NNc2c([N+](=O)[O-])cc(C(F)(F)F)cc2[N+](=O)[O-])cc1Cl
2. O=c1[nH]c2ccccc2n1CCN1CCN(c2cccc(C(F)(F)F)c2)CC1
3. CNCCC(Oc1ccc(C(F)(F)F)cc1)c1ccccc1 (centres undefined) [Fluoxetine HCl]

OUT:
1. 90.4%
2. 91.8%
3. 88.8%

====

Task for the reader: assign each of the following compounds its reported cell viability.
- Tested on: OCI-AML2
- protocol.details: cell viability relative to vehicle control; higher = less cytotoxic
- condition: 10 µM; SRSF2 genotype: wt/wt
One number for each entry, in %.

CCCCCCCC(=O)CCc1ccc(O)c(OC)c1 = 91.6
COc1ccc(CCC(=O)Nc2nc3ccc(Cl)cc3s2)cc1OC = 87.5

Would you kindly look at the next entry?
IN: Can you share its cell viability? I mean this compound: CCCC1O[C@@H]2C[C@H]3[C@@H]4CCC5=CC(=O)C=C[C@]5(C)[C@H]4[C@@H](O)C[C@]3(C)[C@]2(C(=O)CO)O1 (stereo partly drawn) [Budesonide]
OUT: 87.6

====

- Test system: MARIMO
- protocol.details: cell viability relative to vehicle control; higher = less cytotoxic
- condition: 10 µM; SRSF2 genotype: SRSF2 wt/wt
Task for the reader: assign each of the following compounds its reported cell viability.
Answers are plain numbers, in %.

Guide cases for cell viability, answers given:
CS(=O)(=O)CCNCc1ccc(-c2ccc3ncnc(Nc4ccc(OCc5cccc(F)c5)c(Cl)c4)c3c2)o1 = 90.3
OC(CN1CCN(c2cccc(Cl)c2)CC1)C(c1ccccc1)c1ccccc1 (stereo not given) = 90.6
CC1(C)C=Cc2c(ccc3c2OC[C@@H](c2ccc(O)cc2O)C3)O1 = 92.5
CC(C)=CCCC(C)=CCCC(C)=CCCC(C)=CCC1=C(C)C(=O)c2ccccc2C1=O = 92.6

IN: Query for MARIMO: what cell viability does the record show for CCN[C@H]1CN(CCCOC)S(=O)(=O)c2sc(S(N)(=O)=O)cc21 [Brinzolamide] ?
OUT: 88.2

====

Task for the reader: assign each of the following compounds its reported cell viability.
- Tested on: MARIMO
- protocol.details: cell viability relative to vehicle control; higher = less cytotoxic
- condition: 10 µM; SRSF2 genotype: SRSF2 P95H/wt
Where a name gives a salt, the structure may show the parent alone.
Answers are plain numbers, in %.

Cc1nccn1CC1CCc2c(c3ccccc3n2C)C1=O (stereo not drawn) [Ondansetron hydrochloride (Zofran)] = 88.4

Please state cell viability for every compound in the list that follows.
1. Cc1ccc(N(CC2=NCCN2)c2cccc(O)c2)cc1 [Phentolamine Mesylate]
2. CC1(C)S[C@@H]2[C@H](NC(=O)C(C(=O)O)c3ccccc3)C(=O)N2[C@H]1C(=O)O (stereo partly drawn) [Carbenicillin disodium]

OUT:
1: 90.3; 2: 90.3

====

- Test system: MARIMO
- protocol.details: cell viability relative to vehicle control; higher = less cytotoxic
- condition: 10 µM; SRSF2 genotype: SRSF2 wt/wt
endpoint: cell viability
Provide a numeric answer, followed by its unit.

O=c1cc(N2CCOCC2)oc2c(-c3ccccc3)cccc12 = 64.8%
CCN(CC)CCN(Cc1ccc(-c2ccc(C(F)(F)F)cc2)cc1)C(=O)Cn1c(SCc2ccc(F)cc2)nc(=O)c2c1CCC2 = 0.46%
[F][Ti]([F])([F])[F] [Titanium tetrafluoride] = 105%
CC(C)(C)n1nc(-c2ccc(Cl)cc2)c2c(N)ncnc21 = 104%
COC(=O)CC[C@H](NC(=O)[C@H](CC(=O)OC)NC(=O)OCc1ccccc1)C(=O)N[C@H](C(=O)N[C@@H](CC(=O)OC)C(=O)CF)C(C)C = 104%
Nc1nc(=S)c2ncn([C@H]3C[C@H](O)[C@@H](CO)O3)c2[nH]1 = 44.8%

Would you kindly look at the next entry?
IN: Can you share its cell viability? I mean this compound: O=C(CCCCCCNC(=O)c1cnc(N(c2ccccc2)c2ccccc2Cl)nc1)NO
OUT: 20.9%

====

Task for the reader: assign each of the following compounds its reported cell viability.
- Test system: MARIMO
- protocol.details: cell viability relative to vehicle control; higher = less cytotoxic
- condition: 10 µM; SRSF2 genotype: SRSF2 wt/wt
Where a name gives a salt, the structure may show the parent alone.
Numbers only, in %.

Guide cases for cell viability, answers given:
Cc1cc(/N=N/c2ccc(S(=O)(=O)Nc3ccccn3)cc2)c(N)cc1O = 53.3
Cc1cc(Nc2ncnc3ccc(-c4ccc(CNCCS(C)(=O)=O)o4)cc23)ccc1Oc1ccn2ncnc2c1 [HER2 Inhibitor 1] = 108
CCN(C)S(=O)(=O)Nc1ccc(F)c(C(=O)c2c[nH]c3ncc(-c4cnc(C5CC5)nc4)cc23)c1F = 87.5
COc1ccc(NC(=O)c2ccc(C(=N)N(C)C)cc2)c(C(=O)Nc2ccc(Cl)cn2)c1 [Betrixaban] = 90.1
C[C@H](CCC(=O)O)[C@H]1CC[C@H]2[C@@H]3[C@H](O)C[C@@H]4C[C@H](O)CC[C@]4(C)[C@H]3C[C@H](O)[C@]12C [Sodium cholate] = 96.6
C[C@H](NC(=O)/C(C#N)=C/c1cccc(Br)n1)c1ccccc1 = 7.31

Please state cell viability for every compound in the list that follows.
1. O=c1c(-c2ccc(O[C@@H]3O[C@H](CO)[C@@H](O)[C@H](O)[C@H]3O)cc2)coc2cc(O)cc(O)c12 [Sophoricoside]
2. O=C(O)Cc1cccc2ccccc12 [Potassium 1-Naphthaleneacetate]
3. O=C(Nc1cccc(Nc2ncc(Br)c(NCCc3cnc[nH]3)n2)c1)N1CCCC1
4. N=C(N)NC(=N)NCCc1ccccc1 [Phenformin hydrochloride]
5. C1=Cc2ccccc2Nc2ccccc21 [Iminostilbene]
6. C[C@]1(O)C[C@@H](O)[C@@H]2C=CO[C@@H](O[C@@H]3O[C@H](CO)[C@@H](O)[C@H](O)[C@H]3O)[C@@H]21 [Leonuride]
7. CN(C/C=C/C#CC(C)(C)C)Cc1cccc2ccccc12 [Terbinafine hydrochloride (Lamisil)]

OUT:
1: 103; 2: 97.8; 3: 45.4; 4: 98.2; 5: 113; 6: 94.9; 7: 105

====

- Tested on: MOLM14
- protocol.details: cell viability relative to vehicle control; higher = less cytotoxic
- condition: 10 µM; SRSF2 genotype: SRSF2 P95H/wt
Structures can show the parent of a compound that is named as a salt.
endpoint: cell viability (%)
Numbers only, in %.

Guide cases for cell viability, answers given:
CC(S)C(=O)NCC(=O)O (centres undefined) = 100
NNc1nncc2ccccc12 [Hydralazine hydrochloride] = 98.1
C[C@H](Cn1cnc2c(N)ncnc21)OCP(=O)(O)O = 105
CN(C)CCCn1cc(C2=C(c3c[nH]c4ccccc34)C(=O)NC2=O)c2ccccc21 = 36.4
COc1ccc(CCC(=O)Nc2nc3ccc(Cl)cc3s2)cc1OC = 94.6
COc1ccc(COc2ccc(Cc3cnc(N)nc3N)cc2OC)cc1 = 86.6
CCC[C@@H]1C[C@@H](C(=O)N[C@@H]([C@H]2O[C@H](SC)[C@H](O)[C@@H](O)[C@H]2O)[C@@H](C)O)N(C)C1 [Lincomycin hydrochloride (Lincocin)] = 92.6
COc1ccnc2[nH]cc(C(=O)C(=O)N3CCN(C(=O)c4ccccc4)C[C@H]3C)c12 = 95.6
CCCC(CCC)C(=O)O [Valproic acid sodium salt (Sodium valproate)] = 93.2
O=C(Nc1c(Cl)cncc1Cl)c1ccc(OC(F)F)c(OCC2CC2)c1 = 105

Please state cell viability for every molecule in the list that follows.
1. COc1ccc(-c2cc(=O)c3c(OC)c(OC)c(OC)c(OC)c3o2)cc1OC
2. COc1ccc2c(c1)c(CC(=O)O)c(C)n2C(=O)c1ccc(Cl)cc1 [Indomethacin (Indocid, Indocin)]
3. Cc1cc(NC(=O)c2cccc(NC(=O)/C=C/CN(C)C)c2)ccc1Nc1nccc(-c2cccnc2)n1
4. OC(c1ccccc1)(c1ccccc1)C12CC[N+](CCOCc3ccccc3)(CC1)CC2 [Umeclidinium bromide]
5. Nc1nc(N)c2nc(-c3cccc(O)c3)c(-c3cccc(O)c3)nc2n1
6. CCCC[S+]([O-])c1sc2nc(-c3cccs3)cc(-c3ccccc3)c2c1N (centres undefined)
7. CC(=C(CCOC(=O)C(C)C)SSC(CCOC(=O)C(C)C)=C(C)N(C=O)Cc1cnc(C)nc1N)N(C=O)Cc1cnc(C)nc1N (stereo in doubt)

OUT:
1. 83.3
2. 106
3. 6.36
4. 86.5
5. 108
6. 103
7. 84.2

Please state cell viability for every molecule in the list that follows.
1. CC(C)=CC(=O)O[C@H]1Cc2cc3ccc(=O)oc3cc2OC1(C)C
2. c1ccc(NCc2ccc(CNc3ccccn3)cc2)nc1
3. NC12CC3CC(CC(C3)C1)C2 [Amantadine hydrochloride (Symmetrel)]
4. CO[C@H]1C(=O)[C@]2(C)[C@@H](OC)C[C@H]3OC[C@@]3(OC(C)=O)[C@H]2[C@H](OC(=O)c2ccccc2)[C@]2(O)C[C@H](OC(=O)[C@H](O)[C@@H](NC(=O)OC(C)(C)C)c3ccccc3)C(C)=C1C2(C)C
5. CC#CCn1c(N2CCC[C@@H](N)C2)nc2c1c(=O)n(Cc1nc(C)c3ccccc3n1)c(=O)n2C
6. COc1cccc(C=NCCN=Cc2cccc(OC)c2[O-])c1[O-].[Cl-].[Mn+3]
7. Cn1cc(/C=C/C(=O)c2cccc(F)c2)cc1/C=C/C(=O)NO

OUT:
91.1
87.2
106
8.88
101
92.2
70.1

Please state cell viability for every molecule in the list that follows.
1. CC(C)(CNC(=O)c1cccc(-c2noc(C(F)(F)F)n2)c1)c1coc(-c2ccccc2)n1
2. CCCOC(=O)c1cc(O)c(O)c(O)c1 [Propyl gallate]

OUT:
1. 91
2. 97.6

Please state cell viability for every molecule in the list that follows.
1. Fc1ccc([C@@H]2CCNC[C@H]2COc2ccc3c(c2)OCO3)cc1 [Paroxetine mesylate]
2. C=C1CCN([C@H](C)[C@](O)(Cn2cncn2)c2ccc(F)cc2F)CC1
3. CC(=O)NC(CC(C)C)C(=O)O (centres undefined)

OUT:
33.4
85.8
101

The measured values listed here are drawn from the supplement of paper PMC10981050.
